Test system: DeltatarO mutant
ASSAY EXPLANATION: S. aureus survival, RN4220 and DeltatarO strains – OD600, teichoic acid synthesis inhibitors, primary screen (AID 463173)
RUN PARAMETERS: S. aureus RN4220 wild type/DeltatarO growth, OD600, 18 h, screened at 18.75 µg/mL (by protocol)
The whole screen tested about 52,000 compounds, of which about 4,300 (8.3%) were called active. Cut-off read from the data, not from the text of the source: active = survival mostly below about 52% (no sharp cut-off); inactive = mostly above about 56%. The entries come from a sample that favours actives as a whole.
Could you please pick one outcome from this set? 1 (yes) for active, 0 (no) for inactive

Worked set:
CCc1ccc(NC(=O)C2CCC(CNS(=O)(=O)c3cccs3)CC2)cc1 (stereo unspecified) ... 0 (no)
CCOc1ccc(NC(=O)c2oc3ccccc3c2NC(=O)c2c(F)cccc2F)cc1 ... 0 (no)
Cc1ccc(C(=O)Nc2c(C(=O)Nc3ccc(C)c(C)c3)sc3nc(C)cc(C)c23)cc1 ... 0 (no)
CCc1c(C)sc2c1CCN(C(=O)Nc1cc(C)cc(C)c1)C2c1ccccc1 (stereo unspecified) ... 0 (no)
COc1ccc(-n2ccn(Cc3ccccc3Cl)c(=O)c2=O)cc1OC ... 0 (no)
COc1ccccc1NC(=O)C1=C(C)Nc2nc(SCc3ccccc3Cl)nn2C1c1ccccn1 (stereo unspecified) ... 0 (no)
COc1ccccc1C(=O)Nc1c(C(=O)c2ccccc2)oc2ccccc12 ... 1 (yes)
CCc1c(C)sc2c1CCN(C(=O)Nc1cc(OC)c(OC)c(OC)c1)C2c1ccccc1 (stereo unspecified) ... 1 (yes)
CCOc1ccc(-n2c(=O)c3c(C)c(C)sc3n(Cc3ccc(C(C)(C)C)cc3)c2=O)cc1 ... 1 (yes)
O=C(Cn1c(=O)n(-c2ccc(Cl)cc2)c(=O)c2c3c(sc21)CCCCC3)Nc1cccc(Cl)c1 ... 0 (no)

Lab note: next compound to report on.
Q: Called result for Cc1ccc(-n2c(=O)c3c(cnn3C)n(CC(=O)Nc3cccc(C)c3)c2=O)cc1
Result: 0 (no)
